pIC50 values by entry
tgt: immunoproteasome LPM2/β1i subunit (Homo sapiens, UniProt P28065)
test_description: Caliper-based proteasome enzymatic activity assay, LMP2
condition_context: human recombinant immunoproteasome 0.3 nM, FAM-labeled peptide substrate 1 μM, rt 2 h
pIC50: −log10 of the molar value.
value_type: pIC50

> print(dat)
                           molecular.string  experimental.value
1  CC(C)C=C(C#N)C(=O)N1CCCC[C@@H]1CNC(=O)N[C@@H](Cc1ccccc1)B(O)O              < 5.30
2  CC(C)(C=C(C#N)C(=O)N1CCC[C@H](OC(=O)N[C@@H](Cc2coc3ccccc23)B(O)O)C1)N1CCC(F)(F)C1              < 5.30
3  CC(C)C=C(C#N)C(=O)NCCCC[C@H](NC(=O)c1cccc(O)n1)C(=O)N[C@@H](Cc1ccccc1)B(O)O                7.08

* * *

tgt: PBMC/LMP2 (Homo sapiens, UniProt P28065)
test_description: Proteasome-Glo inhibition of proteasome activity in cells, PBMC/LMP2
Assay type: cell-based
condition_context: 2 h incubation at 37° C.
The following compounds are shown together with reported IC50 values.
value_type: IC50

> print(dat)
                           molecular.string  experimental.value
1  CC(C)C=C(C#N)C(=O)N1CCC[C@@H]1COC[C@H](NC(=O)c1cc(Cl)ccc1Cl)C(=O)N[C@@H](Cc1ccccc1)B(O)O              274 nM
2  CC(C)C=C(C#N)C(=O)N(C)c1cccc(C[C@H](NC(=O)c2cc(Cl)ccc2Cl)C(=O)N[C@@H](Cc2ccccc2)B(O)O)c1              208 nM

* * *

tgt: immunoproteasome LMP7/B5i subunit (Homo sapiens)
test_description: Caliper-based proteasome enzymatic activity assay, LMP7
Assay type: biochemical
condition_context: human recombinant immunoproteasome 0.3 nM, FAM-labeled peptide substrate 1 μM, rt 3 h; read-out: LMP7 subunit IC50
pIC50: −log10 of the molar value.
value_type: pIC50

> print(dat)
                           molecular.string                                       tgt  experimental.value
1  CC(C)(C=C(C#N)C(=O)N1CC[C@@H]1COC(=O)N[C@@H](Cc1ccccc1)B(O)O)N1CCC(F)(F)C1  immunoproteasome LMP7/B5i subunit (Homo sapiens)                8.57
2  CC(C)(C=C(C#N)C(=O)N1CCC[C@H](OC(=O)N[C@@H](Cc2ccccc2)B(O)O)C1)N1CCN(C2COC2)CC1  immunoproteasome LMP7/B5i subunit (Homo sapiens)                8.28
3  CC(C)(C=C(C#N)C(=O)N1C2CCC1(COC(=O)N[C@@H](Cc1ccc(F)cc1)B(O)O)CC2)N1CCC(F)(F)C1  immunoproteasome LMP7/B5i subunit (Homo sapiens)                9.15
4  CC(C)C=C(C#N)C(=O)N1CCCC[C@@H]1COC[C@H](NCC(F)(F)F)C(=O)N[C@@H](Cc1ccccc1)B(O)O  immunoproteasome LMP7/B5i subunit (Homo sapiens)                8.00
5  COC(=O)N1CCN(C(C)(C)C=C(C#N)C(=O)N2CCCC[C@H](OC(=O)N[C@@H](Cc3ccccc3)B(O)O)C2)CC1  immunoproteasome LMP7/B5i subunit (Homo sapiens)                8.92
6  C[C@H]1CN(C(C)(C)C=C(C#N)C(=O)N2C3CCC2(COC(=O)N[C@@H](Cc2ccccc2)B(O)O)CC3)CCO1  immunoproteasome LMP7/B5i subunit (Homo sapiens)                8.70
7  C=C(F)C(=O)N1C2CCC1(COC(=O)N[C@@H](Cc1ccc(F)cc1)B(O)O)CC2  immunoproteasome LMP7/B5i subunit (Homo sapiens)                6.89
